test system: Plenodomus lingam; assay: Inhibition of Leptosphaeria maculans brassinin oxidase assessed as relative protein at 0.20 mM relative to control
Metric: Ratio

[
  {
    "Molecular string": "c1ccc2cc(-c3cnsc3)ccc2c1",
    "Study system": "Plenodomus lingam",
    "Ratio": 0.17
  },
  {
    "Molecular string": "c1ccc2[nH]c(-c3cscn3)nc2c1",
    "Study system": "Plenodomus lingam",
    "Ratio": 0.28
  },
  {
    "Molecular string": "Fc1ccc2[nH]cc(-c3nccs3)c2c1",
    "Study system": "Plenodomus lingam",
    "Ratio": 0.23
  },
  {
    "Molecular string": "c1ccc2c(-c3nccs3)c[nH]c2c1",
    "Study system": "Plenodomus lingam",
    "Ratio": 0.24
  },
  {
    "Molecular string": "Fc1ccc2c(-c3nccs3)c[nH]c2c1",
    "Study system": "Plenodomus lingam",
    "Ratio": 0.28
  },
  {
    "Molecular string": "COc1ccc2c(-c3nccs3)c[nH]c2c1",
    "Study system": "Plenodomus lingam",
    "Ratio": 0.16
  }
]

a: c1ccc(-c2c[nH]c3ccccc23)cc1
b: COc1ccc2[nH]cc(-c3nccs3)c2c1
Task: From the recorded data, which exceeds the other in Ratio: a or b ? Please reply using the label of the selected record.
Result: b
(b: 0.24, a: 0.14)
